Target: class C β-lactamase GC1 (Enterobacter cloacae, UniProt Q59401)
Construct: made in house; host or cells: Escherichia coli AS226-51 harbouring pCS100
Sequence (Q59401 entry or part of it): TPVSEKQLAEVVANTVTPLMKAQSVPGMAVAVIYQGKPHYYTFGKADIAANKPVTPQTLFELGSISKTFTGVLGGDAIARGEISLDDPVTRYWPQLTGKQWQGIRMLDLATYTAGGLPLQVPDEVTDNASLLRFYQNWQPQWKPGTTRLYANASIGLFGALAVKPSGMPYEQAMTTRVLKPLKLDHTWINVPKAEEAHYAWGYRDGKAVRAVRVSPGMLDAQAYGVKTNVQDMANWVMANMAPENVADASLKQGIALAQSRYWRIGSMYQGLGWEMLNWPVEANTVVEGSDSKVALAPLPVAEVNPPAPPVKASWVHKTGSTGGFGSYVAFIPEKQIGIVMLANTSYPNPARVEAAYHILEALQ
Assay: Inhibition of β-lactamases, nitrocefin hydrolysis
Assay type: biochemical
Conditions: nitrocefin 100 μM, 10 min pre-incubation
assayEndpoint: pIC50
Lab note — pIC50 values are minus log10 of concentrations in M.

| compound | pIC50 |
| --- | --- |
| O=C(Cc1ccc(F)cc1)N[C@@H]1C(=O)N2C(C(=O)O)=C(CSC(=O)c3ccccc3)CS[C@H]12 [drawing 28] | 4.96 |

Now look at this one.
INPUT: Fill blank: measured pIC50 of the compound O=C(Cc1cccs1)N[C@@H]1C(=O)N2C(C(=O)O)=C(CSC(=O)c3ccccc3)CS[C@H]12 [drawing 27] is ____.
OUTPUT: 3.85

----------
Target: IMP-1 metallo-β-lactamase (Serratia marcescens, UniProt P52699)
Construct: made in house; host or cells: Escherichia coli BL21(DE3) carrying pCIP4
Sequence (P52699 19-246, looked up): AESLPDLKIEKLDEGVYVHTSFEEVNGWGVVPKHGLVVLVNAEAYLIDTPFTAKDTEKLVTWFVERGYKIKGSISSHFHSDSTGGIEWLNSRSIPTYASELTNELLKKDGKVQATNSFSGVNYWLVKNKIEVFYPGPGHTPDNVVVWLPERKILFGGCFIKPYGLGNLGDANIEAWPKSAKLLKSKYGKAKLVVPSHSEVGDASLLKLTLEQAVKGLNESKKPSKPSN
Experiment: Inhibition of β-lactamases, nitrocefin hydrolysis
Format: biochemical
Settings: nitrocefin 100 μM, 10 min pre-incubation; read-out: IC50 IMP-1 (Class B)
assayEndpoint: IC50 (µM)
Your answer is read as µM, so omit the unit and give the number.

INPUT: Report IC50 for O=C(Cc1ccc(F)cc1)N[C@@H]1C(=O)N2C(C(=O)O)=C(CSC(=O)c3ccccc3)CS[C@H]12 [drawing 28] please.
OUTPUT: 8.2

----------
Measured pIC50 by item
Biological target: class D β-lactamase OXA-10 (Pseudomonas aeruginosa, UniProt P14489)
Construct: indicating a post-translational deletion of a 20 amino acid signal peptide
Sequence (P14489 20-266): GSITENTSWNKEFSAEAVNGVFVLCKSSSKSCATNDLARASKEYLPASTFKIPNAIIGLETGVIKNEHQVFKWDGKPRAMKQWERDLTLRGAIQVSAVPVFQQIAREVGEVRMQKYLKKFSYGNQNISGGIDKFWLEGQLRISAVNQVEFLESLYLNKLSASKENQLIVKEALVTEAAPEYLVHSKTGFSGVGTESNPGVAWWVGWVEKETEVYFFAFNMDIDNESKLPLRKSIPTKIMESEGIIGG
Assay: Inhibition of β-lactamases, nitrocefin hydrolysis
In plain terms, pIC50 is the concentration in mol/L turned into minus its base-10 logarithm.

| compound | systemTested | pIC50 |
| --- | --- | --- |
| O=C(Cc1cccs1)N[C@@H]1C(=O)N2C(C(=O)O)=C(CSC(=O)c3ccccc3)CS[C@H]12 [drawing 27] | class D β-lactamase OXA-10 (Pseudomonas aeruginosa, UniProt P14489) | 5.09 |

INPUT: Consider the compound O=C(Cc1ccc(F)cc1)N[C@@H]1C(=O)N2C(C(=O)O)=C(CSC(=O)c3ccccc3)CS[C@H]12 [drawing 28] and give its measured pIC50.
OUTPUT: 5.20

----------
Target: IMP-1 metallo-β-lactamase (Serratia marcescens)
Construct: made in house; host or cells: Escherichia coli BL21(DE3) carrying pCIP4
Experiment: Inhibition of β-lactamases, nitrocefin hydrolysis
Format: biochemical
assayEndpoint: pIC50
pIC50 here is simply -log10 of the concentration when that concentration is written in mol/L.

INPUT: Fill blank: measured pIC50 of the compound O=C(Cc1cccs1)N[C@@H]1C(=O)N2C(C(=O)O)=C(CSC(=O)c3ccccc3)CS[C@H]12 [drawing 27] is ____.
OUTPUT: 5.51

----------
Target: class B β-lactamase NDM-1 (Klebsiella pneumoniae, UniProt C7C422)
Sequence (C7C422 29-270, looked up): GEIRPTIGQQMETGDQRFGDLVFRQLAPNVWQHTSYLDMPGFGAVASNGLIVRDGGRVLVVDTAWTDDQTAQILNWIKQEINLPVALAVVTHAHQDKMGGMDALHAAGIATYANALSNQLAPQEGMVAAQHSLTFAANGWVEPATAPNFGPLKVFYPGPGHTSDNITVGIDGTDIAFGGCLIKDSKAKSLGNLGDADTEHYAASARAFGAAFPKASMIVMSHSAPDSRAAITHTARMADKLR
Test: Inhibition of β-lactamases, nitrocefin hydrolysis
Conditions: 15 μM nitrocefin
List of pIC50 values.
When answering, recall that pIC50 equals minus log10 of the concentration in mol/L, and write that number alone.

| compound | pIC50 |
| --- | --- |
| O=C(Cc1ccc(F)cc1)N[C@@H]1C(=O)N2C(C(=O)O)=C(CSC(=O)c3ccccc3)CS[C@H]12 [drawing 28] | 4.40 |

Next compound, pIC50 to be filled in.
INPUT: Can you share its pIC50? I mean this compound: O=C(Cc1cccs1)N[C@@H]1C(=O)N2C(C(=O)O)=C(CSC(=O)c3ccccc3)CS[C@H]12 [drawing 27]
OUTPUT: 4.48
